Origin of measurements: the METLIN SMRT retention time set (Domingo-Almenara et al. 2019)

assay: gradient 5% acetonitrile 3 min, to 50% in 2 min, to 85% in 15 min, held 3 min, 100 µL/min; details: column: Zorbax Extend-C18 2.1 x 50 mm; eluents: water / acetonitrile, 0.1% formic acid
measure: RP-LC retention time (s)
Please give a number only; it is taken to be in s.

Cc1ccc(-c2coc(-c3cccc(NS(=O)(=O)c4cccc5nsnc45)c3)n2)cc1: 1180
COc1cc(Cl)ccc1-c1nc(-c2ccc3c(c2)oc(=O)n3C(C)C)no1: 1220
Cc1nnc(Cc2ccccc2)c2n[nH]c(C)c12: 647
Cc1ccc2cc(CCC(=O)N(C)Cc3cn(C)nc3C)c(=O)[nH]c2c1: 645
CCOc1ccc(NC(=O)c2cnc(N3CCN(C)CC3)nc2N)cc1: 602
Cc1csc(-c2cc(S(=O)(=O)N3CCN(C4CCCCC4)CC3)c(C)s2)n1: 714

Tell us which RP-LC retention time value is on record for COCC(=O)N(C1CCOCC1)C1CCN(S(=O)(=O)c2ccccc2C)CC1
737

Tell us which RP-LC retention time value is on record for Cc1cc2c(c(=O)n(-c3ccccc3)c(=O)n2CC(=O)Nc2ccc(F)cc2)n1C
797

Tell us which RP-LC retention time value is on record for COc1ccc(C2(C)NC(=O)N(CC(=O)N3CCc4ccccc43)C2=O)cc1 (stereo not given)
750

Tell us which RP-LC retention time value is on record for CCC(C(=O)N1CCN(c2ccccn2)CC1)n1c2ccccc2c2cnn(C)c(=O)c21 (stereo not given)
638

Tell us which RP-LC retention time value is on record for CC(C)NC(=O)N(C1CC1)C1CCOC2(CCN(C(=O)Cc3ccsc3)CC2)C1 (stereo not given)
770

====

assay: gradient 5% acetonitrile 3 min, to 50% in 2 min, to 85% in 15 min, held 3 min, 100 µL/min; conditions: column: Zorbax Extend-C18 2.1 x 50 mm; eluents: water / acetonitrile, 0.1% formic acid
Measured RP-LC retention time by item

Cc1ccnc(N2CCC(C(=O)NCCCN3CCCCCC3)CC2)n1: 556 s

Tell us which RP-LC retention time value is on record for CCn1cnc2ccc(-c3noc(-c4cc(OC)cc(OC)c4)n3)cc21
797 s

Tell us which RP-LC retention time value is on record for COCCCn1c(=O)c2ccccc2n(Cc2nc(-c3ccc(OC)cc3OC)no2)c1=O
884 s

Tell us which RP-LC retention time value is on record for Cc1cc(C)nc(NS(=O)(=O)c2ccc(Nc3nc(-c4ccc(C)c(C)c4)cs3)cc2)n1
1020 s

Tell us which RP-LC retention time value is on record for CCN(CC)CCNC(=O)CN1C(=O)C2CCCCN2c2ccc(C(=O)N3CCCC3)cc21 (stereo not given)
614 s

Tell us which RP-LC retention time value is on record for O=C(Cc1ccc(Cl)cc1)N1CCc2nc[nH]c2C1
590 s

Tell us which RP-LC retention time value is on record for Cc1nnc(C2CCCCCN2S(=O)(=O)c2cccnc2)o1 (stereo not given)
691 s

Tell us which RP-LC retention time value is on record for Cc1cc(-c2nnc(-c3ccco3)o2)c(C)n1CC(=O)NCc1ccc(F)c(Cl)c1
882 s

Tell us which RP-LC retention time value is on record for NC(=O)c1nnn(Cc2cccc([N+](=O)[O-])c2)c1N
616 s

Tell us which RP-LC retention time value is on record for CCN(CC)c1nc(-c2ccccc2F)nc2ccccc12
700 s

====

experiment: gradient 5% acetonitrile 3 min, to 50% in 2 min, to 85% in 15 min, held 3 min, 100 µL/min; conditions: column: Zorbax Extend-C18 2.1 x 50 mm; eluents: water / acetonitrile, 0.1% formic acid
Measured RP-LC retention time by item
Please give a number only; it is taken to be in s.

Would you please look over these solved cases?
CCCS(=O)(=O)c1ccc(NC2CCN(Cc3ccccc3)CC2)nn1: 602
Cc1ccc(S(=O)(=O)N2C(=O)CCC2C(=O)Nc2cccc3ccccc23)cc1 (centres undefined): 933
CCC(=O)N1CCc2c(C(=O)NC3CCCCCC3)cccc21: 887
CCN(C(=O)C1CCN(S(=O)(=O)c2ccc3c(c2)NC(=O)CO3)CC1)c1ccc(OC)cc1: 788
Cc1ccccc1-c1nnc(COc2ccc(NC(=O)c3sccc3C)cc2)o1: 1010

Tell us which RP-LC retention time value is on record for Cc1c(C(=O)NCC2CCCO2)cnn1-c1cc(-c2nc(C3CC3)no2)ccn1 (centres undefined)
837

Tell us which RP-LC retention time value is on record for O=C(NCc1ccccc1F)C1CCCN(c2nnc3ccc(Cl)cn23)C1 (centres undefined)
756

Tell us which RP-LC retention time value is on record for O=C(Nc1ccc2c(c1)OCO2)C1CCN(c2cc(N3CCCC3)ncn2)CC1
642

Tell us which RP-LC retention time value is on record for Cc1cc(=O)n(CC(=O)Nc2ccc3c(c2)OCCO3)c(N2CCc3ccccc3C2)n1
732

Tell us which RP-LC retention time value is on record for Cc1nc(-c2cnccn2)n(CC(=O)Nc2ccc(F)cc2)c(=O)c1C
709

====

test: gradient 5% acetonitrile 3 min, to 50% in 2 min, to 85% in 15 min, held 3 min, 100 µL/min; conditions: column: Zorbax Extend-C18 2.1 x 50 mm; eluents: water / acetonitrile, 0.1% formic acid
Measured RP-LC retention time by item
Please give a number only; it is taken to be in s.

Cc1ccc(C2Cn3nnc(-c4nc(-c5ccc6c(c5)OCO6)no4)c3CO2)c(C)c1 (centres undefined): 1250
Cc1ccc(=O)n(CC(=O)N2CCOCC2)n1: 514
Cc1ccc(-c2ccc(-n3nc(C)c(S(=O)(=O)N4CCCC(C)C4)c3C)nn2)cc1 (centres undefined): 1230

Tell us which RP-LC retention time value is on record for Cc1noc(-c2csc(C(=O)N3CCCC3)n2)n1
688

====

assay: gradient 5% acetonitrile 3 min, to 50% in 2 min, to 85% in 15 min, held 3 min, 100 µL/min; details: column: Zorbax Extend-C18 2.1 x 50 mm; eluents: water / acetonitrile, 0.1% formic acid
measure: RP-LC retention time (s)
Please give a number only; it is taken to be in s.

Would you please look over these solved cases?
CCOc1ccc(CC(=O)Nc2nc(-c3cccs3)cs2)cc1: 963
CCCn1cc(C(=O)NCc2ccccc2F)c(S(=O)(=O)N2CCC(C)CC2)n1: 1090
CCCn1cc(-c2ccncc2)cc1C(=O)Nc1ccc2c(c1)OCCO2: 679

Tell us which RP-LC retention time value is on record for CC1CCCC(NC(=O)c2cc(=O)[nH]c3ccc(Br)cc23)C1C (stereo not given)
869

Tell us which RP-LC retention time value is on record for Cc1cc(C(=O)NCC2Cn3cccc3C(=O)N2C)nn1C (stereo not given)
599

Tell us which RP-LC retention time value is on record for Cc1cc(C)cc(NC(=O)C(=O)NCC(c2ccc3c(c2)OCO3)N2CCOCC2)c1 (stereo not given)
613

====

Measured RP-LC retention time by item
experiment: gradient 5% acetonitrile 3 min, to 50% in 2 min, to 85% in 15 min, held 3 min, 100 µL/min; conditions: column: Zorbax Extend-C18 2.1 x 50 mm; eluents: water / acetonitrile, 0.1% formic acid
Please give a number only; it is taken to be in s.

Cc1nc(C)n(CC(=O)Nc2ccc(F)cc2)c(=O)c1C: 630
Cc1ccc(NC(=O)NCCn2c(-c3ccncc3)nc3cccnc32)cc1Cl: 666
O=C(Cn1cccc1-c1nnc(C2CC2)o1)Nc1ccc(Cl)cc1F: 908
CC12CC(c3ccccc3O1)C(C(=O)Nc1nc(-c3ccccc3)cs1)C(=O)N2 (centres undefined): 996
CCOc1ccc(-c2nc(-c3cccc(-c4ccnn4CC)c3)no2)cc1: 1300
CCCNC(=O)C1CCCN(c2ccc(SCC(=O)Nc3cc(C)cc(C)c3)nn2)C1 (centres undefined): 721
Cc1ccn2cc(C(=O)NCc3ccc(Cl)cc3)nc2c1: 704
COc1ccc(CNC(=O)c2cc3c(-c4cccs4)nn(-c4ccccc4)c3n2C)cc1: 1120

Now for a further compound.
Tell us which RP-LC retention time value is on record for COc1cc(NC(=O)N2CCCC(Cn3c(C)nc4cccnc43)C2)cc(OC)c1 (centres undefined)
639

====

test: gradient 5% acetonitrile 3 min, to 50% in 2 min, to 85% in 15 min, held 3 min, 100 µL/min; settings: column: Zorbax Extend-C18 2.1 x 50 mm; eluents: water / acetonitrile, 0.1% formic acid
One threshold, 800 s, splits the recorded RP-LC retention time values: lower ones are fulfilled, equal or higher ones are not fulfilled.

Answered cases to consult:
COc1ccc(-c2ccc3c(N4CCOC[C@@H]4C)nc(N4CCOC[C@@H]4C)nc3n2)cc1CO: fulfilled
Cc1ccc(-c2noc(Cn3cnc4c(oc5ccccc54)c3=O)n2)cc1: not fulfilled
CCOC(=O)c1[nH]c(C)c(CCC(=O)NC(C)C(=O)N2CCCCC2)c1C (centres undefined): fulfilled
Cc1cc(N2CCN(C(=O)Nc3ccccc3C)CC2)nc(N2CCOCC2)n1: fulfilled
Cc1ccc(S(=O)(=O)N2C(=O)CCC2C(=O)NCc2ccc(Cl)cc2)cc1C (centres undefined): not fulfilled
Cc1cccc(-c2noc(CSc3nc4cc5c(cc4c(=O)n3CC3CCCO3)OCO5)n2)c1 (centres undefined): not fulfilled

Query compound follows.
Consider O=S(=O)(c1ccc(-c2nnc(C3CCCC3)o2)o1)N1CCOCC1 . Does its RP-LC retention time lie strictly below 800 s?
not fulfilled
